Each entry below lists one item and its recorded AUC(0-t) value.
test: Single dose crossover study in healthy volunteers, pharmacokinetics; settings: both, human, plasma, iv, 0.3 mg/kg, AUC0-t, geometric mean, plasma analyte after single dose esketamine 0.3 mg/kg iv
# number then unit; no other words

Example molecules with recorded AUC(0-t):
{"molecule": "N[C@]1(c2ccccc2Cl)CCC[C@H](O)C1=O", "value_type": "AUC(0-t)", "result_value": "376 ng·h/mL"}
{"molecule": "N[C@]1(c2ccccc2Cl)CCCCC1=O [(S)-norketamine]", "value_type": "AUC(0-t)", "result_value": "426 ng·h/mL"}

Here is the next item to consider.
Ask: Recorded AUC(0-t) for "CN[C@]1(c2ccccc2Cl)CCCCC1=O" , please?
Reply: 249 ng·h/mL
